Tested on: Triticum aestivum
Assay: Herbicidal activity against Triticum aestivum (wheat) at 5000 g/ha after 2 weeks
Type: ADME, organism-based
Conditions: in vivo, 336 h
Measure Name: Activity (%)
Numbers only here, please. The scale is %.

# Compound Smiles, Activity, %
data = [
    ("Cc1ccc(F)cc1NC(=O)c1nc(C)c(C)nc1C(=O)NC(C)(C)C", 30),
]

Proceeding to the next compound to report its Activity.
Problem: Fill in the blank: the reported Activity of CCCNC(=O)c1nc(C)c(C)nc1C(=O)Nc1cc(F)ccc1C is ____.
Result: 30

----------
System: Galium spurium
Experiment: Herbicidal activity against Galium spurium var. echinospermon (Wally.) Hayek at 5000 g/ha after 2 weeks
Assay type: functional
Measure Name: Activity (%)
Quick note: give the figure in %, leave out the unit.

Some solved entries appear below for comparison.
# Compound, Target Of Assay, Obs Value
data = [
    ("CCC(C)NC(=O)c1nc(C)c(C)nc1C(=O)Nc1cc(Cl)ccc1C (racemic)", "Galium spurium", 95),
    ("Cc1ccc(Cl)cc1NC(=O)c1nc(C)c(C)nc1C(=O)NC(C)(C)C", "Galium spurium", 30),
    ("CC[C@@H](C)NC(=O)c1nc(C)c(C)nc1C(=O)Nc1cc(Cl)ccc1C", "Galium spurium", 95),
]

Problem: What measured Activity goes with Cc1ccc(F)cc1NC(=O)c1nc(C)c(C)nc1C(=O)NC(C)C ?
Result: 70

Problem: // query Activity value for entry CCCNC(=O)c1nc(C)c(C)nc1C(=O)Nc1cc(Cl)ccc1C
Result: 50

Problem: Record request: Activity value, item CC[C@@H](C)NC(=O)c1nc(C)c(C)nc1C(=O)Nc1cc(F)ccc1C
Result: 70

----------
Test system: Xanthium strumarium
Test: Herbicidal activity against Xanthium strumarium (cocklebur) 500 g/ha after 2 weeks
Type: functional
Measure Name: Activity

# Molecule, Target Of Assay, Obs Value
measured = [
    ("CC[C@H](C)NC(=O)c1nc(C)c(C)nc1C(=O)Nc1cc(F)ccc1C", "Xanthium strumarium", "<10%"),
    ("Cc1ccc(F)cc1NC(=O)c1nc(C)c(C)nc1C(=O)NC(C)(C)C", "Xanthium strumarium", "<10%"),
]

Problem: # lookup: Activity of Cc1ccc(Cl)cc1NC(=O)c1nc(C)c(C)nc1C(=O)NC(C)(C)C
Result: <10%

Problem: Name the recorded Activity for CC[C@@H](C)NC(=O)c1nc(C)c(C)nc1C(=O)Nc1cc(F)ccc1C .
Result: 50%

Problem: Return reported Activity; argument: CCNC(=O)c1nc(C)c(C)nc1C(=O)Nc1cc(Cl)ccc1C
Result: 10%

Problem: Find the recorded Activity belonging to CC[C@H](C)NC(=O)c1nc(C)c(C)nc1C(=O)Nc1cc(Cl)ccc1C and report it.
Result: <10%

Problem: Need Activity, item CCC(C)NC(=O)c1nc(C)c(C)nc1C(=O)Nc1cc(Cl)ccc1C (racemic)
Result: <10%

Problem: Which Activity reading was recorded for the molecule CCCCNC(=O)c1nc(C)c(C)nc1C(=O)Nc1cc(F)ccc1C ?
Result: <10%

Problem: Tell me the measured Activity of Cc1ccc(Cl)cc1NC(=O)c1nc(C)c(C)nc1C(=O)NCC(C)C , please.
Result: <10%

Problem: Activity for Cc1ccc(F)cc1NC(=O)c1nc(C)c(C)nc1C(=O)NCC(C)C ?
Result: 95%

----------
Tested on: Echinochloa crus-galli
Assay: Herbicidal activity against Echinochloa crus-galli (barnyard grass) at 500 g/ha after 2 weeks
Type: functional
Documented Activity across a set of molecules
Give just the number in %; leave the unit off.

Field: example entries. Status: answers known.
# Compound Smiles, Obs Value
records = [
    ("CC[C@@H](C)NC(=O)c1nc(C)c(C)nc1C(=O)Nc1cc(F)ccc1C", 30),
    ("CCCNC(=O)c1nc(C)c(C)nc1C(=O)Nc1cc(F)ccc1C", 10),
]

Query molecule follows.
Problem: What Activity value was documented for this molecule, Cc1ccc(F)cc1NC(=O)c1nc(C)c(C)nc1C(=O)NC(C)C ?
Result: 30

----------
Tested on: Triticum aestivum
Assay: Herbicidal activity against Triticum aestivum (wheat) at 250 g/ha after 2 weeks
Assay type: organism-based
Conditions: in vivo, 336 h
Measure Name: Activity

# Compound, Target Of Assay, Activity
records = [
    ("Cc1ccc(F)cc1NC(=O)c1nc(C)c(C)nc1C(=O)NCC(C)C", "Triticum aestivum", "10%"),
    ("Cc1ccc(F)cc1NC(=O)c1nc(C)c(C)nc1C(=O)NC(C)(C)C", "Triticum aestivum", "< 10%"),
    ("CCCNC(=O)c1nc(C)c(C)nc1C(=O)Nc1cc(Cl)ccc1C", "Triticum aestivum", "< 10%"),
]

Problem: Need Activity of Cc1ccc(F)cc1NC(=O)c1nc(C)c(C)nc1C(=O)NC(C)C , thanks.
Result: < 10%

Problem: Could you tell me which Activity is on file for Cc1ccc(Cl)cc1NC(=O)c1nc(C)c(C)nc1C(=O)NCC(C)C ?
Result: < 10%

Problem: Looking for the measured Activity of CC[C@@H](C)NC(=O)c1nc(C)c(C)nc1C(=O)Nc1cc(F)ccc1C , can you help?
Result: < 10%

----------
Reported Activity by item:
Tested on: Triticum aestivum
Assay: Herbicidal activity against Triticum aestivum (wheat) at 5000 g/ha after 2 weeks
Format: ADME, organism-based
Conditions: in vivo, 336 h

# annotated cases, reported Activity shown
# Molecule, Target Of Assay, Measure Name, Obs Value
data = [
    ("Cc1ccc(Cl)cc1NC(=O)c1nc(C)c(C)nc1C(=O)NCCC(C)C", "Triticum aestivum", "Activity", "< 10%"),
    ("CCCCNC(=O)c1nc(C)c(C)nc1C(=O)Nc1cc(F)ccc1C", "Triticum aestivum", "Activity", "30%"),
    ("Cc1ccc(F)cc1NC(=O)c1nc(C)c(C)nc1C(=O)NCCC(C)C", "Triticum aestivum", "Activity", "10%"),
    ("CCNC(=O)c1nc(C)c(C)nc1C(=O)Nc1cc(F)ccc1C", "Triticum aestivum", "Activity", "< 10%"),
    ("Cc1ccc(F)cc1NC(=O)c1nc(C)c(C)nc1C(=O)NCC(C)C", "Triticum aestivum", "Activity", "30%"),
]

Problem: Give its Activity value. Item: CCCCNC(=O)c1nc(C)c(C)nc1C(=O)Nc1cc(Cl)ccc1C
Result: 30%

Problem: Tell me the measured Activity of Cc1ccc(Cl)cc1NC(=O)c1nc(C)c(C)nc1C(=O)NCC(C)C , please.
Result: 70%

Problem: Value lookup for Activity; key = CCC(C)NC(=O)c1nc(C)c(C)nc1C(=O)Nc1cc(Cl)ccc1C (racemic)
Result: 70%

----------
Test system: Avena fatua
Assay: Herbicidal activity against Avena fatua at 5000 g/ha after 2 weeks
Type: functional
Documented Activity across a set of molecules
Report as a plain number; the unit % is understood.

# Molecule, Obs Value
records = [
    ("CC[C@@H](C)NC(=O)c1nc(C)c(C)nc1C(=O)Nc1cc(F)ccc1C", 30),
]

The record that follows has no Activity shown yet.
Problem: I am curious: what Activity value has been reported for Cc1ccc(F)cc1NC(=O)c1nc(C)c(C)nc1C(=O)NCCC(C)C ?
Result: 30

----------
Test system: Triticum aestivum
Assay: Herbicidal activity against Triticum aestivum (wheat) at 500 g/ha after 2 weeks
Type: ADME, organism-based
Details: in vivo, 336 h
Examples of compounds with documented Activity follow.
A number alone suffices; assume %.

# Compound, Target Of Assay, Units Label, Activity
rows = [
    ("Cc1ccc(F)cc1NC(=O)c1nc(C)c(C)nc1C(=O)NCC(C)C", "Triticum aestivum", "%", 10),
    ("CCC(C)NC(=O)c1nc(C)c(C)nc1C(=O)Nc1cc(F)ccc1C (racemic)", "Triticum aestivum", "%", 30),
]

Problem: Reported Activity, compound CCCCNC(=O)c1nc(C)c(C)nc1C(=O)Nc1cc(F)ccc1C : ____
Result: 30

----------
System: Echinochloa crus-galli
Test: Herbicidal activity against Echinochloa crus-galli (barnyard grass) at 500 g/ha after 2 weeks
Type: functional
Measure Name: Activity

Consider the worked cases shown below.
# Molecule, Target Of Assay, Activity
records = [
    ("Cc1ccc(Cl)cc1NC(=O)c1nc(C)c(C)nc1C(=O)NCC(C)C", "Echinochloa crus-galli", "30%"),
    ("CCC(C)NC(=O)c1nc(C)c(C)nc1C(=O)Nc1cc(Cl)ccc1C (racemic)", "Echinochloa crus-galli", "10%"),
    ("CCNC(=O)c1nc(C)c(C)nc1C(=O)Nc1cc(Cl)ccc1C", "Echinochloa crus-galli", "<10%"),
    ("Cc1ccc(Cl)cc1NC(=O)c1nc(C)c(C)nc1C(=O)NC(C)(C)C", "Echinochloa crus-galli", "<10%"),
    ("CCCCNC(=O)c1nc(C)c(C)nc1C(=O)Nc1cc(F)ccc1C", "Echinochloa crus-galli", "10%"),
]

Problem: Quick one: Activity of CCCCNC(=O)c1nc(C)c(C)nc1C(=O)Nc1cc(Cl)ccc1C ?
Result: <10%
